Experiment: In vivo pharmacokinetic study, mouse
Details: mouse, blood, oral
attribute measured: bioavailability (%)

* CNC(=O)c1c(-c2ccc(F)cc2)oc2cc(N(c3cc(Cl)c4c(c3)COB4O)S(C)(=O)=O)c(C3CC3)cc12 | 39
* CNC(=O)c1c(-c2ccc(F)cc2)oc2cc(N(c3ccc(B(O)O)c(Cl)c3)S(C)(=O)=O)c(C3CC3)cc12 | 37

---

Assay: Hepatocyte incubations, metabolic stability
Assay type: in vitro ADME
Parameters: dose or concentration left out as unconfirmed
Details: cryopreserved human hepatocytes, 0.25×10^6 cells, up to 120 min, 37 C
Form field: half-life (one value per entry).
attribute measured: half-life (h)

* CNC(=O)c1c(-c2ccc(F)cc2)oc2cc(N(Cc3ccc(B(O)O)c(Cl)c3)S(C)(=O)=O)c(C3CC3)cc12 | 0.75
* CNC(=O)c1c(-c2ccc(F)cc2)oc2cc(N(Cc3ccc(B(O)O)c(F)c3)S(C)(=O)=O)c(C3CC3)cc12 | 1.03

Numbers sourced from patent US9682999B2.
